EXPERIMENTAL_SYSTEM: UDP-3-O-acyl-N-acetylglucosamine deacetylase (Pseudomonas aeruginosa (strain ATCC 15692 / PAO1 / 1C / PRS 101 / LMG12228))
Sequence (P47205 whole entry): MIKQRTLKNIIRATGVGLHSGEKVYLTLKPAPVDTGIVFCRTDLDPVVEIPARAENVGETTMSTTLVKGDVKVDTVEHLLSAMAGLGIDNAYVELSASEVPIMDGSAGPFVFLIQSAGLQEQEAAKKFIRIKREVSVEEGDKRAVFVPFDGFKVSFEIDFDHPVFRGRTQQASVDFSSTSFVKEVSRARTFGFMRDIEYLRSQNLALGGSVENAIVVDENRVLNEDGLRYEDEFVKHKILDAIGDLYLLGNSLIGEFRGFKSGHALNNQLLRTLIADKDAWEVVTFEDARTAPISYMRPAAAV
TEST: Inhibition of Pseudomonas aeruginosa UDP-3-O-acyl-N-acetylglucosamine Deacetylase (LpxC) in vitro.
For each entry below, report its IC50 value.

[Q] What value of IC50 has been reported for the following molecule? CCCc1cc(C(=O)NC(CO)C(=O)NO)cc(OC(F)(F)F)c1OC (centres undefined)
[A] > 50 µM

[Q] Give the measured IC50 of CC(=O)Nc1ccc(C2=NC(C(=O)NO)CO2)cc1 (centres undefined) .
[A] > 30 µM

[Q] Tell me the measured IC50 of Cc1ccc(C2=NC(C(=O)NO)CCO2)cc1 (centres undefined) , please.
[A] > 50 µM

[Q] Which IC50 is reported for this molecule? O=C(NO)C1COC(c2cnn(-c3ccccc3)c2C(F)(F)F)=N1 (centres undefined)
[A] > 30 µM

###

EXPERIMENTAL_SYSTEM: UDP-3-O-acyl-N-acetylglucosamine deacetylase (Pseudomonas aeruginosa (strain ATCC 15692 / PAO1 / 1C / PRS 101 / LMG12228))
TEST: Inhibition of Pseudomonas aeruginosa UDP-3-O-acyl-N-acetylglucosamine Deacetylase (LpxC) in vitro.
PARAMETER: pIC50
Keep it numeric: pIC50 is minus log10 of the concentration in mol/L.

[Q] # query: pIC50 of entry C=CCCOc1ccc(C2=NC(C(=O)NO)CS2)cc1 (configuration not stated)
[A] 4.23

[Q] Given O=C(NO)C1COC(c2ccc(C(F)(F)F)nc2)=N1 (configuration not stated) , state its recorded pIC50.
[A] 5.00

[Q] So what does the record say about pIC50 for C=CCOc1ccc(C2=NC(C(=O)NO)CO2)cc1F (configuration not stated) ?
[A] 5.85

[Q] Value lookup for pIC50; key = CN(C)c1ccc(C2=NC(C(=O)NO)CO2)cc1 (configuration not stated)
[A] 5.31

[Q] Dear colleague, I am looking for the recorded pIC50 of the following compound: O=C(NO)C1COC(c2cc3cc(F)ccc3[nH]2)=N1 (configuration not stated)
[A] 5.80

[Q] So what does the record say about pIC50 for O=C(NO)C1COC(c2ccc(F)cc2)=N1 (configuration not stated) ?
[A] 5.22

[Q] Can you look up the measured pIC50 of O=C(NO)C1COC(c2ccc(C(F)(F)F)cc2)=N1 (configuration not stated) for me?
[A] 5.11

###

EXPERIMENTAL_SYSTEM: UDP-3-O-acyl-N-acetylglucosamine deacetylase (Pseudomonas aeruginosa (strain ATCC 15692 / PAO1 / 1C / PRS 101 / LMG12228), UniProt P47205)
Sequence (P47205 whole entry): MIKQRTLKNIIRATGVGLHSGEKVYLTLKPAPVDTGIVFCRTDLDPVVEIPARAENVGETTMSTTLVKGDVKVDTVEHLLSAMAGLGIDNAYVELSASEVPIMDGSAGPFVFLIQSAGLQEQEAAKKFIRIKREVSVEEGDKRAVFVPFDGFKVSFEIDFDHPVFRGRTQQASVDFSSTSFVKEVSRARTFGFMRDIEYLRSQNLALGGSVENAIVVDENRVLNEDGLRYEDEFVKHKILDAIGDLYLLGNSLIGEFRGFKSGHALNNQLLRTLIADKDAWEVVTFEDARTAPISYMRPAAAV
TEST: Inhibition of Pseudomonas aeruginosa UDP-3-O-acyl-N-acetylglucosamine Deacetylase (LpxC) in vitro.
Consider the following molecules; for each one, report its IC50.

[Q] Entry Cc1ccc(C(=O)NC(CO)C(=O)NO)cc1 (stereo not given) : reported IC50 = ?
[A] > 50 µM

[Q] Requested read-out: IC50. Entry: CCCCCCCOc1ccc(C2=NC(C(=O)NO)CO2)cc1 (stereo not given)
[A] > 30 µM

[Q] Please report the recorded IC50 for O=C(NO)C1COC(c2ccc(O)cc2)=N1 (stereo not given) .
[A] > 30 µM

[Q] # query: IC50 of entry Cc1c(C2=NC(C(=O)NO)CO2)cnn1-c1ccccc1 (stereo not given)
[A] > 30 µM

[Q] Which IC50 reading was recorded for the molecule O=C(NO)C1COC(c2ccccc2OC(F)(F)F)=N1 (stereo not given) ?
[A] > 10 µM

Values compiled from ChEMBL document CHEMBL1135994.
